Measured GI50, listed per entry for reference.
Tested on: SF-539
Test: NCI-60 SRB growth inhibition, one-dose and five-dose
Assay type: cell-based
Settings: Homo sapiens, SF-539
Quantity Measured: GI50 (µM)

[[record]]
line_notation = "CC(=O)Nc1ccc(/C=C/C(=O)c2cccc(NCc3ccc(NC(C)=O)cc3)c2)cc1"
quantity_measured = "GI50"
assay_result = 12.2

[[record]]
line_notation = "O=C(/C=C/c1cccnc1)c1cccc(NCc2csc3ccccc23)c1"
quantity_measured = "GI50"
assay_result = 6.15

[[record]]
line_notation = "CC(=O)Nc1ccc(/C=C/C(=O)c2cccc(NCc3ccc(CO)cc3)c2)cc1"
quantity_measured = "GI50"
assay_result = 7.37

[[record]]
line_notation = "Cc1ccc(CNc2cccc(C(=O)/C=C/c3cccnc3)c2)cc1"
quantity_measured = "GI50"
assay_result = 15.6

[[record]]
line_notation = "CC(=O)Nc1ccc(CNc2cccc(C(=O)/C=C/c3cccnc3)c2)cc1"
quantity_measured = "GI50"
assay_result = 6.35


====

Tested on: K-562
Test: NCI-60 SRB growth inhibition, one-dose and five-dose
Assay type: cell-based
Details: Homo sapiens, K562, read-out: percent growth inhibition
Quantity Measured: inhibition at 10 µM (%)

[[record]]
line_notation = "O=C(/C=C/c1cccnc1)c1cccc(NCc2csc3ccccc23)c1"
quantity_measured = "inhibition at 10 µM"
measurement_unit = "%"
assay_result = 111

[[record]]
line_notation = "CC(=O)Nc1ccc(/C=C/C(=O)c2cccc(NCc3ccc(NC(C)=O)cc3)c2)cc1"
quantity_measured = "inhibition at 10 µM"
measurement_unit = "%"
assay_result = 100

[[record]]
line_notation = "CC(=O)Nc1ccc(/C=C/C(=O)c2cccc(NCc3csc4ccccc34)c2)cc1"
quantity_measured = "inhibition at 10 µM"
measurement_unit = "%"
assay_result = 114

[[record]]
line_notation = "O=C(/C=C/c1c[nH]cn1)c1cccc(NCc2ccc3oc(=O)ccc3c2)c1"
quantity_measured = "inhibition at 10 µM"
measurement_unit = "%"
assay_result = 87.2

[[record]]
line_notation = "O=C(/C=C/c1c[nH]cn1)c1cccc(NCc2ccc(CO)cc2)c1"
quantity_measured = "inhibition at 10 µM"
measurement_unit = "%"
assay_result = 80.4


====

System: OVCAR-3
Test: NCI-60 SRB growth inhibition, one-dose and five-dose
Format: cell-based
Settings: Homo sapiens, OVCAR-3
Exam item: assign label 1 to entries whose GI50 is below 3 µM and label 0 to entries at or above 3 µM. Note that a value of exactly 3 µM receives label 0.

[[record]]
line_notation = "CC(=O)Nc1ccc(/C=C/C(=O)c2cccc(NCc3csc4ccccc34)c2)cc1"
label = "label 0"

[[record]]
line_notation = "CC(=O)Nc1ccc(/C=C/C(=O)c2cccc(NCc3ccc(NC(C)=O)cc3)c2)cc1"
label = "label 0"

[[record]]
line_notation = "COc1ccc(CNc2cccc(C(=O)/C=C/c3cccnc3)c2)cc1OC"
label = "label 1"

[[record]]
line_notation = "CC(=O)Nc1ccc(/C=C/C(=O)c2cccc(NCc3ccc(C)cc3)c2)cc1"
label = "label 0"

[[record]]
line_notation = "CC(=O)Nc1ccc(/C=C/C(=O)c2cccc(NCc3ccc(CO)cc3)c2)cc1"
label = "label 0"

[[record]]
line_notation = "O=C(/C=C/c1cccnc1)c1cccc(NCc2ccc(CO)cc2)c1"
label = "label 0"

[[record]]
line_notation = "COc1ccc(CNc2cccc(C(=O)/C=C/c3ccc(NC(C)=O)cc3)c2)cc1OC"
label = "label 1"

[[record]]
line_notation = "CC(=O)Nc1ccc(CNc2cccc(C(=O)/C=C/c3cccnc3)c2)cc1"
label = "label 1"

[[record]]
line_notation = "Cc1ccc(CNc2cccc(C(=O)/C=C/c3cccnc3)c2)cc1"
label = "label 0"

[[record]]
line_notation = "O=C(/C=C/c1cccnc1)c1cccc(NCc2csc3ccccc23)c1"
label = "label 0"

